All values here come from ChEMBL document CHEMBL3351679.

- System under test: Amyloid-beta precursor protein (Homo sapiens, UniProt P05067)
- Sequence (P05067 whole entry): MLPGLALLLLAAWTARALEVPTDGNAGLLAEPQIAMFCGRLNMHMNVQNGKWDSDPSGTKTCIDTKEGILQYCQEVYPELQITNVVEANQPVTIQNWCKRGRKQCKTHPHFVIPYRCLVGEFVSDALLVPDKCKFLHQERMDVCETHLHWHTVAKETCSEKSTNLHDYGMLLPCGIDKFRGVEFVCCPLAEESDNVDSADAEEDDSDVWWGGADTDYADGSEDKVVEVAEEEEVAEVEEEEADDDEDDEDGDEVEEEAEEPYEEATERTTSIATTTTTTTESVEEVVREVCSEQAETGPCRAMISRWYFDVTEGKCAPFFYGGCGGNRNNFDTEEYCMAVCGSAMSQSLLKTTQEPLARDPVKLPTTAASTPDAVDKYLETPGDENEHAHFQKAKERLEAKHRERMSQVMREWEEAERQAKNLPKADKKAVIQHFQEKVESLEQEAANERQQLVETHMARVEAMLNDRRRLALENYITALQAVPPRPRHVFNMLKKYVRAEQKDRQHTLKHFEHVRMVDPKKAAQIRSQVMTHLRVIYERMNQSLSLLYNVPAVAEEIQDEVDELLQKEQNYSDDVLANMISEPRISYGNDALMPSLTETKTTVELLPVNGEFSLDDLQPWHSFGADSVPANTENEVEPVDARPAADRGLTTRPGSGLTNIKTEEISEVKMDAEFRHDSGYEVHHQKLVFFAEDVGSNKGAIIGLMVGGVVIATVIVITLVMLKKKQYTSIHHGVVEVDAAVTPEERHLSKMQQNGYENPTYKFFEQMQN
- Method description: Displacement of [125I]1-Iodo-4-((4-methoxyphenoxy)methyl)benzene from amyloid beta42 (unknown origin) after 3 hrs by gamma counting
- Settings: read-out: pKi (converted)
Outcome measure: Ki (nM)

[
  {
    "Chemical string": "CN(C)c1cccc(OCc2ccc(I)cc2)c1",
    "Ki [nM]": 891
  },
  {
    "Chemical string": "CNc1cccc(OCc2ccc(I)cc2)c1",
    "Ki [nM]": 589
  },
  {
    "Chemical string": "CNc1ccc(OCc2ccc(I)cc2)cc1",
    "Ki [nM]": 47.9
  },
  {
    "Chemical string": "COc1ccc(SCc2ccc(I)cc2)cc1",
    "Ki [nM]": 525
  },
  {
    "Chemical string": "Oc1cccc(OCc2ccc(I)cc2)c1",
    "Ki [nM]": 389
  },
  {
    "Chemical string": "Nc1ccccc1OCc1ccc(I)cc1",
    "Ki [nM]": 1020
  },
  {
    "Chemical string": "Nc1cccc(OCc2ccc(I)cc2)c1",
    "Ki [nM]": 1550
  },
  {
    "Chemical string": "Oc1ccc(OCc2ccc(I)cc2)cc1",
    "Ki [nM]": 112
  }
]

[a] CNc1ccccc1OCc1ccc(I)cc1
[b] Fc1ccc(OCc2ccc(I)cc2)cc1
Just curious, which one has the larger Ki reading, a or b ? Write down the label attached to your selection.
a

[P] COc1ccc(OCc2ccc(I)cc2)cc1
[Q] Brc1ccc(OCc2ccc(I)cc2)cc1
[R] COc1ccccc1OCc1ccc(I)cc1
[S] Ic1ccc(COc2ccccc2)cc1
Falling order of Ki, please. Answer by listing the labels in the order asked for.
R, S, P, Q
(R: 5130 nM, S: 79.4 nM, P: 24.5 nM, Q: 12 nM)

---

- System under test: Amyloid-beta precursor protein (Homo sapiens, UniProt P05067)
Outcome measure: pKd
Reminder that pKd means the negative base-10 logarithm of the concentration expressed in mol/L.

Return pKd measured with Amyloid-beta precursor protein (Homo sapiens, UniProt P05067) given this compound: `COc1ccc(OCc2ccc([125I])cc2)cc1`
9.25

---

- System under test: Amyloid-beta precursor protein (Homo sapiens)
- Method description: Displacement of [125I]1-Iodo-4-((4-methoxyphenoxy)methyl)benzene from amyloid beta42 (unknown origin) after 3 hrs by gamma counting
- Settings: read-out: pKi (converted)
Outcome measure: Ki (nM)

# count of solved cases: 5
[
  {
    "Chemical string": "Ic1ccc(COc2ccc(I)cc2)cc1",
    "Outcome measure": "Ki",
    "Units text": "nM",
    "Experimental value": 21.9
  },
  {
    "Chemical string": "Clc1ccc(OCc2ccc(I)cc2)cc1",
    "Outcome measure": "Ki",
    "Units text": "nM",
    "Experimental value": 18.6
  },
  {
    "Chemical string": "CC(C)(C)c1ccc(OCc2ccc(I)cc2)cc1",
    "Outcome measure": "Ki",
    "Units text": "nM",
    "Experimental value": 117
  },
  {
    "Chemical string": "Nc1ccc(OCc2ccc(I)cc2)cc1",
    "Outcome measure": "Ki",
    "Units text": "nM",
    "Experimental value": 407
  },
  {
    "Chemical string": "COc1ccc(COc2ccc(I)cc2)cc1",
    "Outcome measure": "Ki",
    "Units text": "nM",
    "Experimental value": 49
  }
]

[1] CN(C)c1ccc(OCc2ccc(I)cc2)cc1
[2] COc1cccc(OCc2ccc(I)cc2)c1
From the items above, decide which of 1 and 2 has the lower Ki reading. Return value: the label identifying the chosen record.
1
(1: 17.8 nM, 2: 132 nM)
